- Tested on: HL-60 cells
- PROTOCOL: MTT cell viability assay, leukemia
- Type: cell-based
- ASSAY CONTEXT: Homo sapiens, HL-60, 72 h
- Protocol: Human cell lines were obtained from the American Type Culture Collection (ATCC, Manassas, VA, USA). […] MRC-5, SK-MES-1, J82, and AGS cells were seeded at a density of 5 × 10^4 cells/mL in 96-well plates. […] At the end of the incubation period, cell viability was determined using the MTT reduction assay. […]
VALUE TYPE: pIC50
Please report pIC50 as the negative decimal logarithm of the molar concentration, giving only the number.

Observe how each entry below is paired with its result.
- COMPOUND: "C=C(C)[C@@H]1CC[C@]2(C(=O)OCCCC[P+](c3ccccc3)(c3ccccc3)c3ccccc3)CC[C@]3(C)[C@H](CC[C@@H]4[C@@]5(C)CC[C@H](O)C(C)(C)[C@@H]5CC[C@]43C)[C@@H]12 [BA-C4-TPP^+Br^−]"
  pIC50: 6.66
- COMPOUND: "C=C(C)[C@@H]1CC[C@]2(C(=O)OCCCCCC[P+](c3ccccc3)(c3ccccc3)c3ccccc3)CC[C@]3(C)C(CCC4[C@@]5(C)CC[C@H](O)C(C)(C)C5CC[C@]43C)C12 (stereo partly drawn) [BA-C6-TPP^+Br^−]"
  pIC50: 6.04

Please find the next compound below.
Record lookup: for HL-60 cells, what pIC50 belongs to COc1cc([C@@H]2c3cc4c(cc3[C@@H](O[C@@H]3O[C@@H]5CO[C@@H](C)O[C@H]5[C@H](O)[C@H]3O)[C@H]3COC(=O)[C@H]23)OCO4)cc(OC)c1O [Etoposide, reference compound] ? 6.09

====

IC50: recorded values
- Test system: AU565 cells
- PROTOCOL: MTT cell viability assay, mammary carcinoma
- Format: cell-based, human
- ASSAY CONTEXT: Homo sapiens, AU565, 48 h
Please append the unit to your numeric answer.

Observe how each entry below is paired with its result.
- COMPOUND: "C=C(C)[C@@H]1CC[C@]2(C(=O)OCCCCC[P+](c3ccccc3)(c3ccccc3)c3ccccc3)CC[C@]3(C)C(CCC4[C@@]5(C)CC[C@H](O)C(C)(C)C5CC[C@]43C)C12 (stereo partly shown) [BA-C5-TPP^+Br^−]"
  MEASURED VALUE: "1.02 µM"
- COMPOUND: "C=C(C)[C@@H]1CC[C@]2(C(=O)OCCCC[P+](c3ccccc3)(c3ccccc3)c3ccccc3)CC[C@]3(C)[C@H](CC[C@@H]4[C@@]5(C)CC[C@H](O)C(C)(C)[C@@H]5CC[C@]43C)[C@@H]12 [BA-C4-TPP^+Br^−]"
  MEASURED VALUE: "0.6 µM"
- COMPOUND: "C=C(C)[C@@H]1CC[C@]2(C(=O)O)CC[C@]3(C)[C@H](CC[C@@H]4[C@@]5(C)CC[C@H](O)C(C)(C)[C@@H]5CC[C@]43C)[C@@H]12 [BA, 3β-hydroxy-lup-20(29)-en-28-oic acid, reference compound]"
  MEASURED VALUE: "9.29 µM"

Item C=C(C)[C@@H]1CC[C@]2(C(=O)OCCCCCC[P+](c3ccccc3)(c3ccccc3)c3ccccc3)CC[C@]3(C)C(CCC4[C@@]5(C)CC[C@H](O)C(C)(C)C5CC[C@]43C)C12 (stereo partly shown) [BA-C6-TPP^+Br^−] has what recorded IC50? 1.33 µM

====

- Test system: SK-MES-1 cells
- PROTOCOL: MTT cell viability assay, lung cancer
- Type: cell-based
- ASSAY CONTEXT: Homo sapiens, SK-MES-1, 72 h
pIC50: −log10 of the molar value.
// label = yes if pIC50 is not less than 6, otherwise no

Has COc1cc([C@@H]2c3cc4c(cc3[C@@H](O[C@@H]3O[C@@H]5CO[C@@H](C)O[C@H]5[C@H](O)[C@H]3O)[C@H]3COC(=O)[C@H]23)OCO4)cc(OC)c1O [Etoposide, reference compound] a recorded pIC50 greater than or equal to 6? no

Has C=C(C)[C@@H]1CC[C@]2(C(=O)OCCCC[P+](c3ccccc3)(c3ccccc3)c3ccccc3)CC[C@]3(C)[C@H](CC[C@@H]4[C@@]5(C)CC[C@H](O)C(C)(C)[C@@H]5CC[C@]43C)[C@@H]12 a recorded pIC50 greater than or equal to 6? yes

Has C=C(C)[C@@H]1CC[C@]2(C(=O)OCCCCC[P+](c3ccccc3)(c3ccccc3)c3ccccc3)CC[C@]3(C)C(CCC4[C@@]5(C)CC[C@H](O)C(C)(C)C5CC[C@]43C)C12 (some centres unmarked) a recorded pIC50 greater than or equal to 6? yes

Has C=C(C)[C@@H]1CC[C@]2(C(=O)O)CC[C@]3(C)[C@H](CC[C@@H]4[C@@]5(C)CC[C@H](O)C(C)(C)[C@@H]5CC[C@]43C)[C@@H]12 [BA, 3β-hydroxy-lup-20(29)-en-28-oic acid, reference compound] a recorded pIC50 greater than or equal to 6? no

====

- System: HL-60 cells
- PROTOCOL: MTT cell viability assay, leukemia
- Type: cell-based
- ASSAY CONTEXT: Homo sapiens, HL-60, 72 h
VALUE TYPE: IC50 (µM)
Field: numeric (µM). Do not append units.

- COMPOUND: "C=C(C)[C@@H]1CC[C@]2(C(=O)OCCCCC[P+](c3ccccc3)(c3ccccc3)c3ccccc3)CC[C@]3(C)C(CCC4[C@@]5(C)CC[C@H](O)C(C)(C)C5CC[C@]43C)C12 (some centres unmarked) [BA-C5-TPP^+Br^−]"
  ASSAY TARGET: "HL-60 cells"
  RESULT UNITS: "µM"
  IC50: 0.63

Please find the next compound below.
Item C=C(C)[C@@H]1CC[C@]2(C(=O)O)CC[C@]3(C)[C@H](CC[C@@H]4[C@@]5(C)CC[C@H](O)C(C)(C)[C@@H]5CC[C@]43C)[C@@H]12 [BA, 3β-hydroxy-lup-20(29)-en-28-oic acid, reference compound] has what recorded IC50? 21.9
